- System: SF-295 CNS
- protocol: NCI-60 one-dose screen, 48 h (100 = growth as untreated, 0 = no growth, -100 = all killed)
- details: 10 µM unless noted
The panel holds about 83,000 compounds, 20% with a hit somewhere; the sample as a whole holds those more often. Active and inactive are the calls of the source. How the source made its calls: active means growth percent below 10; inactive means the rest.
quantity: growth

Prompt: What does the data say about its growth? Entry: CCN(C(=O)CCl)C(C)(C)C(SSSC(c1ccc(Cl)cc1)C(C)(C)N(CC)C(=O)CCl)c1ccc(Cl)cc1 (stereo unspecified)
Response: 89.5% (inactive)

Prompt: Next molecule up: N/N=C(\C(=N\N)c1ccccc1)c1ccccc1
Response: 105% (inactive)

Prompt: Item: C[C@H](NC(=O)c1snnc1C1CC1)c1c(F)cccc1Cl
Response: 96.8% (inactive)

Prompt: Repeat for the following molecule: Cc1cc(Nc2c3ccccc3nc3ccccc23)ccc1NS(C)(=O)=O
Response: 34.4% (inactive)

Prompt: Try this molecule next: CCOC(=O)Nc1ccc2nc(N3CCCCCC3)sc2c1
Response: 23.5% (inactive)

Prompt: Entry to check: CN1C(=O)N(C)C2C1NN=c1s/c(=C\c3ccc(C(F)(F)F)cc3)c(=O)n12 (stereo unspecified)
Response: 10.4% (inactive)

* * *

- Test system: UO-31 renal
- protocol: NCI-60 one-dose screen, 48 h
- details: 10 µM unless noted
The panel holds about 83,000 compounds, 20% with a hit somewhere; the sample as a whole holds those more often. Calls of active or inactive are those of the source. How the source made its calls: active means growth percent below 10; inactive means the rest.
Please answer using one outcome listed in active, inactive

Prompt: Test call, this compound: FC(F)(F)c1cc(-c2nnc3n2N=C(Cl)CS3)cc(C(F)(F)F)c1
Response: inactive

Prompt: Check CC(=O)Oc1c(Cl)c(Cl)c(Cl)c(Cl)c1Cl too.
Response: inactive

Prompt: Now consider C/C(=N\NC(=O)CSc1nc2ccccc2c(=O)n1CCc1ccc(S(N)(=O)=O)cc1)c1ccc(Br)cc1 and answer again.
Response: inactive

Prompt: Same question for CC(C)(CCc1ccccn1)C(=O)CCCc1ccccn1 please.
Response: inactive

Prompt: Now the compound COc1ccc(-c2nc3c(c(-c4ccc(Cl)cc4)nn3-c3ccccc3)c(-c3ccc(O)cc3)c2C#N)cc1
Response: inactive

Prompt: Now consider Clc1cc2nc(-c3ccccc3)c(-c3ccccc3)nc2cc1Cl and answer again.
Response: inactive

Prompt: Check COc1cc(C2CC(=O)Nc3c2cnn3C)cc(OC)c1OC (stereo unspecified) too.
Response: inactive

Prompt: Likewise for COc1ccc2[nH]cc(C3(c4c[nH]c5ccc(OC)cc45)C(=O)Nc4ccc(F)cc43)c2c1 ?
Response: inactive

Prompt: // query: COc1cccc(-c2cc(-c3cccs3)c(C#N)c(=O)[nH]2)c1
Response: inactive

Prompt: Lookup C[N+](C)(C)CC(=O)N/N=C\c1ccco1
Response: inactive

Prompt: Next entry: COc1cnc2c(c1)C(=O)c1c-2n(CCCN2CCNCC2)c(=O)c2cc(Cl)ccc12
Response: active

* * *

- System: SNB-19 CNS
- protocol: NCI-60 one-dose screen, 48 h (100 = growth as untreated, 0 = no growth, -100 = all killed)
- details: 10 µM unless noted
- Procedure: Growth inhibition of the SNB-19 human tumor cell line is measured as a screen for anti-cancer activity. Cells are grown in 96 well plates and exposed to the test compound for 48 hours. Compounds are tested at a single concentration, which is 10^-5 M for most compounds. The reported endpoint is percent growth (GI% or GIPRCNT), where numbers from 0 - 100% represent growth inhibition, and numbers from -100% - 0 represent cell death. For example, a value of 40 represents 60% growth inhibition. […]
About 83,000 compounds went through this panel and 20% of them were active in at least one assay; those are over-represented in the sample as a whole. Activity calls are given as the source filed them. Rule for the calls: active = growth percent below 10; inactive = the rest.
For each of the molecules below, state its growth.

Prompt: What value of growth has been recorded for this entry: CCCCCCCCCCCCCCCC1=NC(C)(C)CN1C(C)C
Response: 42.6% (inactive)

Prompt: What do you get for NC(=O)c1ccc[n+](Cc2ccccc2)c1 ?
Response: 106% (inactive)

Prompt: Next: CCCCCc1c(C)[nH]c(/C=C2\N=C(c3ccc[nH]3)C=C2Oc2ccc(OC)cc2)c1C
Response: -83.1% [100 µM] (active)

Prompt: How about O=C(CSc1nc2c(n1Nc1ccccc1)-c1ccccc1SC2)Nc1nccs1 ?
Response: 99.4% (inactive)

Prompt: Then what about the molecule C=C(C)[C@@H]1CC[C@]2(C(=O)NC(COC(=O)C(Cl)Cl)(COC(=O)C(Cl)Cl)COC(=O)C(Cl)Cl)CC[C@]3(C)[C@H](CC[C@@H]4[C@@]5(C)CC[C@H](OC(C)=O)C(C)(C)[C@@H]5CC[C@]43C)[C@@H]12 ?
Response: 70.6% (inactive)

Prompt: Same read-out for CCCCCCCCN=C(NCCCCCCCC)SCc1cccc2ccccc12 ?
Response: -88.4% (active)

Prompt: Do the same for COc1ccc(C(=O)C(CN(C)C)c2ccc(OC)cc2)cc1 (configuration not stated) please
Response: 90.7% (inactive)

Prompt: Please give the result for CS(=O)(=O)c1ccc(C(=O)N2N=C(c3ccccc3)CC2c2ccc3c(c2)OCO3)cc1 (configuration not stated) too.
Response: 103% (inactive)

Prompt: Now give it for O=C1c2cccc3cccc(c23)C(=O)N1CCCCCCCCCCN1C(=O)c2cccc3cccc(c23)C1=O too.
Response: 104% (inactive)

Prompt: Next up: CC(=O)C1CCC2C3CC(C)=C4CC(O)CCC4(C)C3CCC12C (configuration not stated)
Response: 97.5% (inactive)

Prompt: Try CCOC(=O)Cc1cc(Br)c(OCc2ccccc2)c(Br)c1 next.
Response: 97.9% (inactive)

Prompt: Proceed to CC(C)c1cccc(C#N)c1
Response: 99% (inactive)

Prompt: Can you handle O=C1OCC2=C1C(c1ccccc1)c1cc3c(cc1N2CCO)OCO3 (configuration not stated) next?
Response: 36% (inactive)

Prompt: Cool, now Nc1c(N)c2ccccc2c2ccccc12
Response: 104% (inactive)

Prompt: Next entry: COc1ccc(-c2nc3c(c(-c4ccc(Cl)cc4)nn3-c3ccccc3)c(-c3ccc(O)cc3)c2C#N)cc1
Response: 62.1% (inactive)

Prompt: Next molecule up: CC1=CC(=O)OC1C/C=C(\C)CCC1[C@@]2(C)CCC[C@@](C)(C(=O)O)C2CC[C@@]1(C)O (some centres not stated)
Response: 53.3% (inactive)

Prompt: Cc1c(C(N)=O)sc2ncn(CC(=O)NN=C3CCCCC3)c(=O)c12 ?
Response: 104% (inactive)

* * *

- System: MDA-MB-435 melanoma
- protocol: NCI-60 one-dose screen, 48 h (100 = growth as untreated, 0 = no growth, -100 = all killed)
- details: 10 µM unless noted
This is part of a sample that, as a whole, favours compounds with a hit. Of some 83,000 tested, about 20% had one in any assay.
For each record, write down the corresponding growth.
Report only the number, with the unit % understood.

Prompt: Item under review: COc1cc(NC(=O)CSc2nc3ccc(Cl)cc3c(=O)n2Cc2ccccc2)cc(OC)c1OC . Reported growth?
Response: 78.2

Prompt: Same question, CC(=O)C1CCC2C3CC(C)=C4CC(O)CCC4(C)C3CCC12C (configuration not stated) this time
Response: 109

Prompt: Repeat for the following compound: O=C1Nc2ccc(Cl)cc2/C1=C\c1c(-c2ccc(F)cc2)nc2ccccn12
Response: -34.5

Prompt: Subsequent entry: O=C(CSc1nc2c(n1Nc1ccccc1)-c1ccccc1SC2)Nc1nccs1
Response: 103

Prompt: Moving on to CC(NC(=O)c1ccccc1)C(=O)Nc1ccccc1 (configuration not stated)
Response: 112

Prompt: Likewise for CC(C)(C)OC[C@@H]1N=C(c2ccc(Br)cc2)Nc2nc3ccccn3c2C1=O ?
Response: -13.8

Prompt: Repeat with O=C1/C(=C/c2ccccc2)SC(=Nc2ccccc2)N1Nc1ccccc1
Response: -25.4

* * *

- Tested on: SF-295 CNS
- protocol: NCI-60 one-dose screen, 48 h (100 = growth as untreated, 0 = no growth, -100 = all killed)
- details: 10 µM unless noted
Compounds without any hit were thinned out: in the full panel of roughly 83,000, 20% have a hit.
For each entry below, report its growth value.
Write the number in % without appending the unit.

Prompt: Consider the molecule shown here: O=C1N(Cc2ccccc2Cl)c2ccccc2C12NN=C(c1ccccc1)S2 (configuration not stated) What is its recorded growth?
Response: 41

Prompt: Record: COc1cccc(N2CCN(c3ncnc4cc[nH]c34)CC2)c1
Response: 44.2

Prompt: Next molecule: Clc1ccc(-c2cnc3nonc3n2)s1
Response: 92.8

Prompt: And for CS(=O)(=O)c1ccc(C(=O)N/N=C/c2ccc3c(c2)OCO3)cc1 ?
Response: 101

Prompt: Then this molecule: O=C1Nc2ccc(Br)cc2/C1=N/c1nc(-c2ccccc2)cs1
Response: 102

Prompt: Then what about the molecule CCN(CC)CC(=O)Nc1c(C)cc(C(=O)NN)cc1C ?
Response: 105

Prompt: Input c1ccc(-c2nnn(-c3ccccc3)n2)cc1
Response: 106

Prompt: // query: O=C(Nc1cccc(-n2ccc3c(NC(=O)c4ccccc4)nccc32)c1)c1ccc(N2CCOCC2)c(C(F)(F)F)c1
Response: -15.4

Prompt: Ok, now OC(CCCCCCCCC(O)CN1CCc2ccccc2C1)CN1CCc2ccccc2C1 (configuration not stated)
Response: 83.2

Prompt: Also check CS(=O)(=O)c1ccc(C(=O)N/N=C/c2cccc3ccccc23)cc1
Response: 76

Prompt: Same again, this time with CCCCOc1nc2ccc(C)cc2cc1/C=C/C(=O)/C=C(O)/C=C/c1cc2cc(C)ccc2nc1OCCCC
Response: 101

Prompt: Try this molecule next: O=C(CC(=O)c1ccccc1F)Nc1ccc([N+](=O)[O-])cc1
Response: 98

Just for reference, PubChem BioAssay (NCI) is where these values come from.
